All figures here come from PubChem BioAssay (NCI).

- Tested on: HS 578T breast
- assay.text: NCI tumour cell line growth inhibition, 48 h
Note to self: values exactly at 70 µM are 1 (yes). So TGI at or above 70 µM is 1 (yes), below is 0 (no).

{"columns": ["molecule", "answer.label"],
 "data": [
  ["Cc1ccc2c(c1)C(=O)C1(Cc3ccccc3C1=O)C2 (stereo not drawn)", "1 (yes)"],
  ["Cc1cc2c(cc1Cl)SC(N(N(C)C)S(=O)(=O)c1ccc(Cl)cc1)=NS2(=O)=O", "0 (no)"],
  ["Nc1ncnc2c1nnn2C1OC(CO)C(O)C1O (stereo not drawn)", "0 (no)"],
  ["O=c1[nH]c(=O)n(C2OC(CO)C(O)C2O)c2nc(-c3ccc(-c4ccccc4)cc3)cnc12 (stereo not drawn)", "1 (yes)"],
  ["CC1(C)C2CCC1(C)[C@H](n1c(=O)n([C@@H]3CC4CCC3(C)C4(C)C)c(=O)n([C@@H]3CC4CCC3(C)C4(C)C)c1=O)C2", "1 (yes)"],
  ["CCOC(=O)c1ccc(NCC#CCN2CCOCC2)cc1", "1 (yes)"],
  ["CCN(CCCN(CC)C(=O)Nc1c(C)cccc1C)C(=O)Nc1c(C)cccc1C", "1 (yes)"],
  ["[O-][n+]1ccccc1Sc1nc(Sc2cccc[n+]2[O-])nc(Sc2cccc[n+]2[O-])n1", "0 (no)"],
  ["COc1cccc2c(=O)oc(-c3ccc(C(C)(C)C)cc3)nc12", "1 (yes)"],
  ["O=C(Nc1ccc(Cl)cc1)c1cccc(NC2=C(Cl)C(=O)N(Cc3ccccc3)C2=O)c1", "0 (no)"],
  ["O=c1[nH]c(Nc2nc3ccccc3[nH]2)nc(O)c1-c1ccccc1", "1 (yes)"],
  ["COc1cc(C2c3cc4c(cc3OC(C)(O)C2C)OCO4)cc(OC)c1OC (stereo not drawn)", "1 (yes)"],
  ["CN1CSC(=S)N(c2c3ccccc3nc3ccc(Br)cc23)C1", "0 (no)"],
  ["NS(=O)(=O)c1cc(Br)c(N=Nc2ccc(O)c3ncccc23)c(Br)c1", "1 (yes)"],
  ["Cc1cc(N(CCOS(C)(=O)=O)CCOS(C)(=O)=O)ccc1C=O", "1 (yes)"],
  ["Cc1cc2c3c(nc4ccccc42)C(=O)c2ccccc2-c3n1", "0 (no)"]
]}

###

- Test system: UACC-62 melanoma
- assay.text: NCI tumour cell line growth inhibition, 48 h; in the data active = GI50 below about 0.43 µM; inactive = the rest
Classes used: t for active, f for inactive

{"columns": ["molecule", "answer.label"],
 "data": [
  ["O=C1c2cc3c(cc2-c2c1c1ccc(F)cc1c(=O)n2CCCNCCO)OCO3", "t"],
  ["O=C1OC(O)[C@@H]2[C@H]1[C@H]1CC[C@@H]2O1 (some centres undefined)", "f"],
  ["CC[C@H](Nc1ncnc2nc[nH]c12)c1oc2ccccc2c(=O)c1-c1cccc(F)c1", "f"],
  ["Cc1cc(I)cc(CN(C)CCCN2CCCCC2)c1O", "f"],
  ["COc1ccc(/C=C(/C#N)n2nnc3cccc(F)c32)cc1", "f"],
  ["O=C(Nc1ccc(Cl)cc1)c1cccc(NC2=C(Cl)C(=O)N(Cc3ccccc3)C2=O)c1", "f"],
  ["Cc1cccc(NC(=O)Cn2cnc3sc(C(=O)OC(C)C)c(C)c3c2=O)c1", "f"],
  ["COc1ncnc(NS(=O)(=O)c2ccc(N=C3C(=O)N(CN4CCN(c5c(F)cc6c(=O)c(C(=O)O)cn(C7CC7)c6c5OC)CC4C)c4ccc(Cl)cc43)cc2)c1OC (centres undefined)", "f"],
  ["Cc1cc(/C=C/c2ccc3cc(N(C)C)ccc3[n+]2C)c(C)n1-c1ccccc1", "t"]
]}

###

Each entry below carries its reported TGI.
- Tested on: OVCAR-3 ovarian
- assay.text: NCI tumour cell line growth inhibition, 48 h

{"columns": ["compound", "tested.target", "TGI"],
 "data": [
  ["CN1CSC(=S)N(c2c3ccccc3nc3ccc(Br)cc23)C1", "OVCAR-3 ovarian", "33.3 µM"],
  ["CCCCCCN(CCCCCC)C(=O)Cc1c2n(c3ccccc13)Cc1ccccc1-2", "OVCAR-3 ovarian", "> 100 µM"],
  ["COc1c(Cl)c(=O)oc2ccc(Cl)cc12", "OVCAR-3 ovarian", "> 100 µM"],
  ["COc1cc(NCc2ccc3oc(=O)c(-c4ccccc4)nc3c2)cc(OC)c1OC", "OVCAR-3 ovarian", "> 10 µM"],
  ["Cc1c2c(nn1-c1ccc(S(=O)(=O)/N=C3\\SCCC(=O)N3c3ccccc3)cc1)-c1ccccc1CC2", "OVCAR-3 ovarian", "> 100 µM"],
  ["COC(=O)C1CCC(=O)N1C(c1ccc(OC)cc1)c1ccc2c(c1)OCO2 (stereo not given)", "OVCAR-3 ovarian", "> 100 µM"],
  ["CC(C)[C@H]1COC(=O)N1[C@@H]1C(=O)N([C@@H](CCC(=O)N2CCN(C3CCCC3)CC2)C(=O)N[C@@H]2CCCc3ccccc32)[C@@H]1/C=C/c1cccc(Br)c1", "OVCAR-3 ovarian", "3.92 µM"],
  ["CS(=O)c1ncc2c(n1)-c1ccccc1OC2 (stereo not given)", "OVCAR-3 ovarian", "> 100 µM"],
  ["COc1cc2c(c(OC)c1OC)-c1ccc(OC)c(=O)cc1C(NC(=O)c1ccc(N=[N+]=[N-])cc1)CC2 (stereo not given)", "OVCAR-3 ovarian", "0.0555 µM"],
  ["C=C(Br)C(C)(Br)CCC(Br)C(C)(C)Cl (stereo not given)", "OVCAR-3 ovarian", "33.5 µM"]
]}

###

- Tested on: SK-MEL-2 melanoma
- assay.text: NCI tumour cell line growth inhibition, 48 h
Each entry below carries its reported TGI.
experimental.endpoint: TGI

{"columns": ["compound", "experimental.endpoint", "result"],
 "data": [
  ["N#CC(C#N)=CNC(N)=S", "TGI", "> 100 µM"],
  ["O=C(/C=C/c1ccc2c(c1)OCO2)CC(=O)C(=O)c1c[nH]c2ccccc12", "TGI", "> 100 µM"],
  ["O=C(O)CCC(=O)OC1N=C(c2ccccc2Cl)c2cc([N+](=O)[O-])ccc2NC1=O (stereo not given)", "TGI", "> 100 µM"],
  ["COc1ncnc(NS(=O)(=O)c2ccc(N=C3C(=O)N(CN4CCN(c5c(F)cc6c(=O)c(C(=O)O)cn(C7CC7)c6c5OC)CC4C)c4ccc(Cl)cc43)cc2)c1OC (stereo not given)", "TGI", "> 50 µM"],
  ["O=S(=O)(CCn1c(Sc2ccccc2)c(Sc2ccccc2)c2ccccc21)c1ccccc1", "TGI", "> 100 µM"]
]}

###

Each entry below carries its reported GI50.
- System: SNB-19 CNS
- assay.text: NCI tumour cell line growth inhibition, 48 h
experimental.endpoint: GI50

{"columns": ["mol.smiles", "result"],
 "data": [
  ["Cc1c2c(nn1-c1ccc(S(=O)(=O)/N=C3\\SCCC(=O)N3c3ccccc3)cc1)-c1ccccc1CC2", "> 100 µM"],
  ["CC[C@H](Nc1ncnc2nc[nH]c12)c1oc2ccccc2c(=O)c1-c1cccc(F)c1", "30.5 µM"],
  ["CC(C)[C@H]1COC(=O)N1[C@@H]1C(=O)N([C@@H](CCC(=O)N2CCN(C3CCCC3)CC2)C(=O)N[C@@H]2CCCc3ccccc32)[C@@H]1/C=C/c1cccc(Br)c1", "2.77 µM"],
  ["COc1cc2c3c(n(C)c(=O)c2cc1OC)-c1cc2c(cc1/C3=C\\CCCN)OCO2", "18.7 µM"]
]}

###

- Test system: KM12 colon
- assay.text: NCI tumour cell line growth inhibition, 48 h
experimental.endpoint: TGI

{"columns": ["molecule", "result"],
 "data": [
  ["c1c[nH]c(-c2ccc(-c3ccc[nH]3)c3nsnc23)c1", "> 100 µM"],
  ["O=[N+]([O-])c1ccc(Oc2c(Cl)cc(S(=O)(=O)/N=C(\\NO)Nc3ccc(Cl)cc3)cc2Cl)cc1", "29 µM"],
  ["COc1ccc(NC(=O)CC(=O)N2N=C(N3c4ccccc4Sc4ccccc43)CC2c2ccccc2)cc1 (stereo not drawn)", "> 100 µM"]
]}

###

- Test system: SF-539 CNS
- assay.text: NCI tumour cell line growth inhibition, 48 h

{"columns": ["molecule", "prefix.operator", "TGI (µM)"],
 "data": [
  ["Cc1cn(C2CC(O)C(CO)O2)c(=O)[nH]c1=O (centres undefined)", ">", 5000],
  ["COc1cc(/C=C2\\CN(S(=O)(=O)c3ccccc3)C/C(=C\\c3cc(CN4CCCC4)c(O)c(OC)c3)C2=O)cc(CN2CCCC2)c1O", "=", 3.31],
  ["O=C(CC(C(=O)c1ccsc1)c1ccc2c(c1)OCO2)c1ccccc1 (centres undefined)", ">", 100],
  ["CSC(=S)N/N=C(\\C)c1ccc(S(=O)(=O)N(C)c2ccccc2)cc1", ">", 100],
  ["COc1ccc(NC(=O)CC(=O)N2N=C(N3c4ccccc4Sc4ccccc43)CC2c2ccccc2)cc1 (centres undefined)", ">", 100],
  ["COc1cc(C2c3cc4c(cc3OC(C)(O)C2C)OCO4)cc(OC)c1OC (centres undefined)", "=", 0.888],
  ["Cc1cc2c(cc1Cl)SC(N(N(C)C)S(=O)(=O)c1ccc(Cl)cc1)=NS2(=O)=O", "=", 45.8],
  ["CSc1nsc(-c2ccccc2)[s+]1", ">", 100],
  ["O=C(/C=C/c1ccncc1)c1cc(Cl)ccc1O", "=", 41.9]
]}
